Where a name gives a salt, the structure may show the parent alone.
Target or system sigma 1 receptor (Cavia porcellus); recorded quantity IC50.
The answer is to be given in nM; state only the numeric part.

molecule: CCCNC(CCC(C)C)Cc1ccc(OC)c(OCCc2ccccc2)c1 (single isomer, unassigned; (-)) [A, hydrochloride]
test-target: sigma 1 receptor (Cavia porcellus)
Sequence (Q60492 whole entry): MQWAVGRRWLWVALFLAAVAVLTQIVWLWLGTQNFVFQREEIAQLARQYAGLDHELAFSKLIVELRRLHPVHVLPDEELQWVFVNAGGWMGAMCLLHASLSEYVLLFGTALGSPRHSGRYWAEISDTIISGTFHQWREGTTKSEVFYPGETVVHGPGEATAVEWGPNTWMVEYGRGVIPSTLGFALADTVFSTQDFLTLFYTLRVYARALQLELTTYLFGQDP
unit-label: nM
measurement: 0.46

Now for a further molecule.
Identify measured IC50 obtained with sigma 1 receptor (Cavia porcellus) for CCCCC(Cc1ccc(OC)c(OCCc2ccccc2)c1)NCCC (single isomer, unassigned; (-)) [B, hydrochloride] .
0.73
